assay: self-splicing fitness, log relative to wild type (ln ratio); higher = more splicing; Tetrahymena group I intron in knt gene, E. coli kanamycin selection, DiMSum; sequences stand for … in CUCUCU…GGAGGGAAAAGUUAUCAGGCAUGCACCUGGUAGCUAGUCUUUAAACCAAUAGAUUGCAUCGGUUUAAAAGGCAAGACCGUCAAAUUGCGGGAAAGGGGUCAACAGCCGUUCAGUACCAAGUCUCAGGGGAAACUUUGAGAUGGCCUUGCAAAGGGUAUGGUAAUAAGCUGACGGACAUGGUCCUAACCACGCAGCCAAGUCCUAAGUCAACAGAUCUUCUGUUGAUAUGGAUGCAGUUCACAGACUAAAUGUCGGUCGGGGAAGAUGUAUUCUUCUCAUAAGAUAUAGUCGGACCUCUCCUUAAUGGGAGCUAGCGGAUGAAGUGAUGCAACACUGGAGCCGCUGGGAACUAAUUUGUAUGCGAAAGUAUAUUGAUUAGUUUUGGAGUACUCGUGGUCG; details: 30 °C;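 further: selection with 25 µg/mL kanamycin versus none on LB agar overnight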
Everything with self-splicing fitness (ln) lower than -1 is no (0); everything else, including exactly -1, is yes (1).

Known results for sequences:
1. AAAGAGCAAUAUUACGACUC; no (0)
2. AAAUAGCAAUAUUACGAGAG; no (0)

Pending sequence:
Enquiry: I'd appreciate it if you could say whether GGGUAGCAAUAUUACGAUAU has self-splicing fitness (ln) at least equal to -1.
Return: yes (1)
